Each record here notes measured normalized growth.
assay-overview: chemical genetic growth profiling, strain panel (AID 1159580);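 note: tested at 20 µM; growth read once vehicle control cultures reached saturation at 30 °C; 1 = growth at the plate median or of vehicle wells; lower values mean less growth of the strain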
experimental-context: S. cerevisiae deletion strains, growth OD, locus YGL173C, strain kem1, active compounds read low
The campaign covered roughly 5,500 compounds. About 2,000 (36%) were called active. Not shown: some 18% with an inconclusive outcome. This is one part of the list.
readout-name: normalized growth

{"molecule": "COc1ccc2c(c1)OC1(O)COc3cc(OC)c(OC)cc3C1=C2 (stereo unspecified)", "measured": 0.94}
{"molecule": "COc1cc2nc(N(C)CCCNC(=O)C3CCCO3)nc(N)c2cc1OC (stereo unspecified)", "measured": 0.994}
{"molecule": "CC(=O)S[C@@H]1CC2=CC(=O)CC[C@]2(C)[C@H]2CC[C@@]3(C)[C@@H](CC[C@@]34CCC(=O)O4)C12 (stereo partly specified)", "measured": 1.02}
{"molecule": "Nc1nc(=S)c2[nH]cnc2[nH]1", "measured": 0.98}
{"molecule": "CC[C@@]1(O)C[C@H](O[C@H]2C[C@H](N(C)C)[C@H](O)[C@H](C)O2)c2c(cc3c(c2O)C(=O)c2c(O)ccc(O)c2C3=O)[C@H]1C(=O)OC", "measured": 0.716}
{"molecule": "C#CCCCCCCCCCCCc1ccco1", "measured": 0.989}
{"molecule": "CNC(=O)O/N=C(\\C)SC", "measured": 0.991}
{"molecule": "COC(=O)[C@@H]1OC(=O)C2OC23[C@@]1(C)CCC1[C@]2(C)C(C[C@H](O)[C@]13C)C(C)(C)[C@H](OC(C)=O)C[C@@H]2OC(C)=O (stereo partly specified)", "measured": 1.01}
{"molecule": "CC[C@@]1(O)C[C@H](O)c2c(cc3c(c2O)C(=O)c2c(O)ccc(O)c2C3=O)[C@H]1C(=O)OC", "measured": 0.906}
{"molecule": "C=CCc1ccc(O)c(OC)c1", "measured": 1}
{"molecule": "COc1ccc(C(CN(C)C)C2(O)CCCCC2)cc1 (stereo unspecified)", "measured": 0.987}
{"molecule": "C[C@]12CCC(=O)C=C1C=CC1C2CC[C@@]2(C)C1CC[C@@]2(O)CCC(=O)O (stereo partly specified)", "measured": 1.01}
{"molecule": "Nc1ncn[nH]1", "measured": 1.02}
{"molecule": "COc1ccc2c(c1)OC/C(=C/c1ccc(OC)c(OC)c1)C2=O", "measured": 0.984}
{"molecule": "N[C@@H](Cc1ccc(N(CCCl)CCCl)cc1)C(=O)O", "measured": 0.994}
{"molecule": "C[C@]12CCC(=O)C=C1C=CC1C2CC[C@@]2(C)C1CC[C@@]21CCC(=O)O1 (stereo partly specified)", "measured": 0.953}
{"molecule": "CC1(C)S[C@@H]2[C@H](NC(=O)[C@H](N)c3ccccc3)C(=O)N2[C@H]1C(=O)O", "measured": 0.984}
{"molecule": "Cc1ccc(S(=O)(=O)NC(=O)NN2CCCCCC2)cc1", "measured": 0.998}
{"molecule": "COc1ccc(CN(CCN(C)C)c2ccccn2)cc1", "measured": 1.02}
{"molecule": "OCCc1ccccc1", "measured": 0.957}
{"molecule": "C=C[C@@](C)(O)CCC1C(=C)C[C@H](O)C2C(C)(C)CCCC12C (stereo partly specified)", "measured": 0.974}
{"molecule": "O=C(O)CCCc1ccc(N(CCCl)CCCl)cc1", "measured": 0.999}
{"molecule": "CN(C)CCOC(c1ccc(Cl)cc1)c1ccccn1 (stereo unspecified)", "measured": 1.02}
{"molecule": "COc1ccc(-c2coc3cc(O)ccc3c2=O)cc1", "measured": 0.979}
{"molecule": "CC[C@@]1(O)C[C@H](O[C@H]2C[C@H](N(C)C)[C@H](O)[C@H](C)O2)c2c(cc3c(c2O)C(=O)c2c(O)cccc2C3=O)[C@H]1C(=O)OC", "measured": 0.913}
{"molecule": "COC(=O)C1=COC(OC2OC(CO)C(O)C(O)C2O)C2C(C)CC(=O)C12 (stereo unspecified)", "measured": 1.03}
{"molecule": "O=C1C(Cl)=C(Cl)C(=O)C(Cl)=C1Cl", "measured": 0.958}
{"molecule": "CCCCC/C=C/CCC(=O)N[C@H]1[C@H](Oc2c3cc4cc2Oc2ccc(cc2Cl)[C@@H](O[C@@H]2O[C@H](CO)[C@@H](O)[C@H](O)[C@H]2NC(C)=O)[C@@H]2NC(=O)[C@H](NC(=O)[C@@H]4NC(=O)[C@H]4NC(=O)C(Cc5ccc(c(Cl)c5)O3)NC(=O)[C@H](N)c3ccc(O)c(c3)Oc3cc(O)cc4c3)c3ccc(O)c(c3)-c3c(OC4O[C@H](CO)[C@@H](O)[C@H](O)[C@@H]4O)cc(O)cc3[C@@H](C(=O)O)NC2=O)O[C@H](CO)[C@@H](O)[C@@H]1O (stereo partly specified)", "measured": 0.994}
{"molecule": "O=C(O[C@@H]1Cc2c(O)cc(O)cc2O[C@@H]1c1ccc(O)c(O)c1)c1cc(O)c(O)c(O)c1", "measured": 0.848}
{"molecule": "NCCc1cnc[nH]1", "measured": 1}
{"molecule": "COc1ccc(C(=O)O)cc1OC", "measured": 0.998}
{"molecule": "COc1ccc(-c2coc3cc(O)ccc3c2=O)c(OC)c1O", "measured": 0.974}
{"molecule": "O=C1NCC2(CCN(CCc3ccccc3)CC2)O1", "measured": 0.979}
{"molecule": "CN1C2CCC1CC(OC(c1ccccc1)c1ccccc1N)C2 (stereo unspecified)", "measured": 0.999}
{"molecule": "C#CCN(C)Cc1ccccc1", "measured": 1.05}
{"molecule": "COc1ccc(OC)c(C(O)CNC(=O)CN)c1 (stereo unspecified)", "measured": 0.995}
{"molecule": "CC(=O)Oc1cc(OC(C)=O)c2c(c1)O[C@H](c1ccc(OC(C)=O)c(OC(C)=O)c1)[C@H](OC(C)=O)C2", "measured": 1}
{"molecule": "COc1ccc(-c2coc3cc(O)ccc3c2=O)c(O)c1O", "measured": 0.671}
{"molecule": "Clc1ccc(C(OCCN2CCCCC2)c2ccccc2)cc1 (stereo unspecified)", "measured": 1.01}
{"molecule": "c1ccc2c(c1)sc1ccccc12", "measured": 0.827}
{"molecule": "O=C(O)CCCc1ccccc1", "measured": 0.997}

The reported numbers originate from PubChem BioAssay AID1159580.
